- ASSAY METHOD TEXT: yeast display, Sf9 membrane polyspecificity reagent, FACS + sequencing; frameworks hold sequencing errors

>  <RESIDUE STRING>
QVQLVESGGGLVQAGGSLRLTCAASGSIFGNAMGWYREAPGKEREIVAAISSSGSSTYYADSVKGRFTMSRDTAKNTVYLQMNSLKPADTAVYYCNKGSRRYHGYDYWGQGTQVTVSS

>  <polyreactivity (PSR sort gate)>
high polyreactivity

$$$$
>  <RESIDUE STRING>
QVQHVESGGGLVQAGGSLRLSCAASGSTFDSNDMGWYRQAPGKEWELVPGITWSGASTYYADSVKGRFTISRDNAKNTVYLQMNSLKPEDTAVYYCAAGPWGTGHYVQGPVYYYRYDYWGQGTQVTVSS

>  <polyreactivity (PSR sort gate)>
low polyreactivity

$$$$
>  <RESIDUE STRING>
QVQLVESGGGLVQAGGSLRLSCAASVFTFKINGMGWYRQAPGKEREFVATIRTSTGRTYYADSVKGRFTISRDNAKNTVYLQMNSLKPEDTAVYYCDTRVRQGNTHPNGKSDDYWGQGTQVTVSS

>  <polyreactivity (PSR sort gate)>
high polyreactivity

$$$$
>  <RESIDUE STRING>
QVQLVESGAGLVQAGGRLRLRCDASGFIFRYYAMGWYRQAPGKERELVAAISESGASTYYADSVKGRFTISRDNAKNTVYLQMNSLKPEDTAVYYCAAKPRKSGPYYFYDLNYWGQGTQVTVSS

>  <polyreactivity (PSR sort gate)>
high polyreactivity

$$$$
>  <RESIDUE STRING>
QVQLQESGGGLVKAGGTPRLSCAASYNIFPDSVMCWYRQAPGTERELVATIGFVATTNYADSVKGRFTISRDNAKNTLYLQMNSLNPEDTAVYYCAAVPLNYEYFCYWGEGTQVTVSS

>  <polyreactivity (PSR sort gate)>
low polyreactivity

$$$$
>  <RESIDUE STRING>
QVQLVESGGGLVQAGGSLRLSCAASGRILYGYAMGWYRQAPGKERELVASIPWSGGSTYADSVKGRFTISRDNAKNTVYLQMNSLKPEDTAVYYCATRRGPKWQWLTYGYWGQGTQVTVSS

>  <polyreactivity (PSR sort gate)>
low polyreactivity

$$$$
>  <RESIDUE STRING>
QVQLVESGGGLVQAGGSLRLSCAASGITFGWYAMGWYRQAPGKERELVAAISGRGGRTYYADSVKGRFKISRDNAKNTVYLQMNSLKPEDTAVYYCAARARRWSYITGSYVLIEYEYWGQGTQVTVSS

>  <polyreactivity (PSR sort gate)>
high polyreactivity

$$$$
>  <RESIDUE STRING>
QVQLVESGGGVVQAGVTLRLSCAASGRIFHYNAMGWYRQAPGKEREMVAAFTWIGGSTYADSVKGRFTISRDNSKNSVYLLMNSLKPEDTAVYYFNARYIYRFDFWGQGTQVTVSS

>  <polyreactivity (PSR sort gate)>
low polyreactivity

$$$$
>  <RESIDUE STRING>
QVQLVESGGGLDQAGGSLRLSCAASGRTLYRYAMGWYRQSPGKERELVAAIRSGGRTNYADSVKGRFTISRDNAKNTVYLQLNSLKPEDTAVYYCAARTLRYPSTYDYWGQGTQVTVSS

>  <polyreactivity (PSR sort gate)>
high polyreactivity

$$$$
>  <RESIDUE STRING>
QVQLVESGGGLVQAGGSLRLSFAASGRIFGYYAMGWYRQAPGKERELVAAITTSDGSTYYADSVKGRFTISRDNAKNTVYLQMNSLKPEDTAVYYCNARRWGYQWRGDYWGQGTQVTVSS

>  <polyreactivity (PSR sort gate)>
high polyreactivity

$$$$
>  <RESIDUE STRING>
QVQLVESGGGLVQAGGSLRLSCAASGSTFTVYAMGWYRQAPGKERELVAVITGSGGSTYYADSVKGRFTISRDNAKNTVYLQMNSLKPEDTAVYYCAKEPGENWTVSWRDFDYWGQGTQVTVSS

>  <polyreactivity (PSR sort gate)>
low polyreactivity

$$$$
>  <RESIDUE STRING>
QVQLVESGGGLVQAGGSLRLSCAASGRTFGVNAMGWYRQAPGKERELVARNRVSGGRTYYADSVKGRFTISRDNAKNTVYLQMNSLKPEDTAVYYFNAGYTYNRVIWPYYYWGQGTQVTVSS

>  <polyreactivity (PSR sort gate)>
high polyreactivity

$$$$
